- TARGET OR SYSTEM: HLA-B*08:01 (recombinant MHC class I molecule) (human)
- METHOD: REVEAL MHC-peptide binding assay, recombinant HLA-B*08:01
- CONDITIONS: remark: other sources report otherwise
MEASURE: In Vitro Score (score, % of positive control peptide)
Answer with the value's number alone.

QUERY: Consider the binder shown here: `AFIIFWVHR` What is its recorded In Vitro Score (score, % of positive control peptide)?
RESULT: 0.3

QUERY: Need In Vitro Score (score, % of positive control peptide), item `IIFWVSRGR`
RESULT: 0

QUERY: Which In Vitro Score (score, % of positive control peptide) is reported for this binder? `IIFWVKRGA`
RESULT: 0.9

QUERY: In Vitro Score (score, % of positive control peptide) lookup needed for `IFWVQRGRK` , thanks.
RESULT: 0

QUERY: Entry `WVARGRKKL` has what In Vitro Score (score, % of positive control peptide)?
RESULT: 32.4

QUERY: Item `IFWVKRGLK` has what recorded In Vitro Score (score, % of positive control peptide)?
RESULT: 58.3

QUERY: Please give the measured In Vitro Score (score, % of positive control peptide) for this binder: `AFIIFWVAR`
RESULT: 0.2

QUERY: Quick check: In Vitro Score (score, % of positive control peptide) of `IFWVARGRK` ?
RESULT: 0

Each recorded value in this set is attributed to patent US20200297760A1.
